TESTED ON: T1, corticotropin releasing factor 2 receptor; further: reference of the scale not given here
T1 sequence (Q13324 whole entry, species assumed, looked up): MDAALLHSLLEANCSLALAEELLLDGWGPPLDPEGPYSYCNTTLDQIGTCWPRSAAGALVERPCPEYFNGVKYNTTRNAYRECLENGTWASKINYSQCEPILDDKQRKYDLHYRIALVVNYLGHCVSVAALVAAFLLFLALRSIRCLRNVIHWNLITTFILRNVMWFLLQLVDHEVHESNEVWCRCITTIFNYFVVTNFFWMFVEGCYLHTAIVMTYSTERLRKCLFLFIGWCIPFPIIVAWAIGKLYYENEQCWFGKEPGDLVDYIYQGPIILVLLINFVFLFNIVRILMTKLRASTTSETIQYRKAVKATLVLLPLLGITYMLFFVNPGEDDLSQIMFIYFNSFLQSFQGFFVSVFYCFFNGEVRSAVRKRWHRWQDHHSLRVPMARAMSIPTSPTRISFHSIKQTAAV
PROTOCOL DETAILS: cell-based or functional assay
Below, each of the binders is paired with its reported CRF2R Emax value.
Kindly answer with a numeric value in %, unit omitted.

- BINDER: "ZGPPISIDLPFQLLRKMIEIEKQEKEKQQATTNARLLDTV (C-terminal amide) [SEQ ID NO 20]"
  MEASURED METRIC: "CRF2R Emax"
  OBSERVED RESULT: 99
- BINDER: "ZGPPISIDLPWQLLRKMIEIEKQEKEKQQAANNRLLLDTI (C-terminal amide) [SEQ ID NO 210]"
  MEASURED METRIC: "CRF2R Emax"
  OBSERVED RESULT: 97
- BINDER: "ZGPPISIDLPHWLLRKMIEIEKQEKEKQQAANNRLLLDTI (C-terminal amide) [SEQ ID NO 186]"
  MEASURED METRIC: "CRF2R Emax"
  OBSERVED RESULT: 100

Could you now consider this next binder?
## Input Would you kindly share the measured CRF2R Emax for ZGPPISIDLPYLLLRKMIEIEKQEKEKQQAANNRLLLDTI (C-terminal amide) [SEQ ID NO 203] ?
## Output 94
